- assayedTarget: UniProt:Q9ZPX1
quantityName: pKd
Answers are plain numbers, as −log10 of the molar value.

Could you tell me which pKd is on file for CNc1ccccc1C(=O)O[C@H]1C[C@H](n2cnc3c(=O)[nH]c(N)nc32)O[C@@H]1COP(=O)(O)OP(=O)(O)O [mdGDP, 2-deoxy-3-O-N-methylanthraniloyl GDP] ?
6.57

* * *

- assayedTarget: TTN5 (TITAN 5) (Arabidopsis thaliana, UniProt Q9ZPX1, T30N)
- Sequence (Q9ZPX1 whole entry T30N): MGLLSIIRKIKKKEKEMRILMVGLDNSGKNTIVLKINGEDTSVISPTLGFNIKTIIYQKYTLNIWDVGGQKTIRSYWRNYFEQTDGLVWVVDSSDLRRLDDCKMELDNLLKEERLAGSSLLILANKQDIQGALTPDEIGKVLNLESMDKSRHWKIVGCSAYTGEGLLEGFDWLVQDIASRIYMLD
- assayRemarks: stopped-flow fluorimetry, koff/kon
quantityName: Kd (µM)
Numbers only, in µM.

Could you tell me which Kd is on file for CNc1ccccc1C(=O)O[C@H]1C[C@H](n2cnc3c(=O)[nH]c(N)nc32)O[C@@H]1COP(=O)(O)OP(=O)(O)O [mdGDP, 2-deoxy-3-O-N-methylanthraniloyl GDP] ?
3.09
